Listed here: items and their measured composite z-score.
TARGET ENTITY: Follistatin-related protein 3 (Homo sapiens)
PROTOCOL DESCRIPTION: FSTL3 binders on small-molecule microarrays, primary screen, biochemical, small-molecule microarray, 635 nm fluorescence (AID 1105);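 further: score merges emission near 667 nm and signal to noise per printed spot across three slides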
ASSAY CONDITIONS: FSTL3 binding, higher = more signal
Answer field: number only, no words.

Example entries begin here.
1) CCCCN1CC=CC23O[C@@H]4/C=C\CCCOC(=O)C4[C@H]2C(=O)N(CCCCCCO)[C@@H]3C1=O (some centres not stated)	-0.451
2) CN(C)CCCC[C@@H]1NC(=O)[C@H]2C[C@@H](C(=O)NCCCCCCNC(=O)CS)[C@@H](c3cccc(OCCO)c3)N2C1=O	-0.606

(Q) Returns the measured composite z-score for the input compound. Input: COC(=O)[C@]1(Cc2ccccc2N=[N+]=[N-])N=C(c2ccc(OCCCO)cc2)O[C@@H]1c1ccccc1CN=[N+]=[N-]
(A) 0.315

(Q) Given the entry COc1ccc(CCNC(=O)[C@@H]2c3ccccc3C(=O)N(Cc3cc(F)cc(C(F)(F)F)c3)[C@H]2c2ccc(CO)cc2)cc1 , report its measured composite z-score.
(A) 1.1

These entries and their values trace back to PubChem BioAssay.
